test system: K-562 leukemia; assay: NCI tumour cell line growth inhibition, 48 h
The entries below come with measured TGI values attached.
TEST_READOUT: TGI

1. Cc1ccc(S(=O)(=O)N2CCCCC2CCO)cc1 (stereo not drawn)
> 100 µM
2. Cc1ccc(S(=O)/C=C(\NC(=O)OCc2ccccc2)C(F)(F)F)cc1 (stereo not drawn)
> 100 µM
3. CC(=O)O[C@H]1C(=O)[C@]2(C)[C@@H](OC(=O)OCC(O)CO)C[C@H]3OC[C@@]3(OC(C)=O)[C@H]2[C@H](OC(=O)c2ccccc2)[C@]2(O)C[C@H](OC(=O)[C@H](O)[C@@H](NC(=O)c3ccccc3)c3ccccc3)C(C)=C1C2(C)C (stereo partly drawn)
> 100 µM
